experiment notes: Intrinsic clearance in CD1 mouse liver microsomes at 1 uM measured up to 30 mins by UPLC-MS/MS method
Type: ADME, microsome
study conditions: 0.5 h
attribute measured: CLH (mL/min/g)

>>> val("CC(C)Cc1ccc2ncccc2c1NS(=O)(=O)c1ccc(CCCN2CCN3CCC[C@@H]3C2)cc1")
6.2
>>> val("O=S(=O)(Nc1c(N2CCCC2)ccc2ncccc12)c1ccc(Br)cc1")
27
>>> val("CC(C)Cc1ccc2ncccc2c1NS(=O)(=O)c1ccc(CCCCN2CCCN(C)CC2)cc1")
1.8

I. CC(C)Cc1ccc2ncccc2c1NS(=O)(=O)c1ccc(CCCCC2CCN(C)CC2)cc1
II. CC(C)Cc1ccc2ncccc2c1NS(=O)(=O)c1ccc(CCCN2CCCN(C)CC2)cc1
Of the two listed items, I and II , which carries the larger CLH figure? Bench note: the answer is the label of the chosen record.
I
(I: 6.2 mL/min/g, II: 3.7 mL/min/g)

A. O=S(=O)(Nc1c(Cc2ccccc2)ccc2ncccc12)c1ccc(Br)cc1
B. CC(C)Cc1ccc2nn(C)cc2c1NS(=O)(=O)c1ccc(CCCCN2CCCN(C)CC2)cc1
C. O=S(=O)(Nc1c(CC2CCCCC2)ccc2ncccc12)c1ccc(Br)cc1
Please list these compounds in decreasing order of CLH. Note for the reader: the ranking is given by listing the labels in the order requested.
C, A, B
(C: 33 mL/min/g, A: 23 mL/min/g, B: 4 mL/min/g)

I. Cn1cc2c(NS(=O)(=O)c3ccc(Br)cc3)c(N3CCCC3)ccc2n1
II. CC(C)Cc1ccc2nn(C)cc2c1NS(=O)(=O)c1ccc(CCCOC[C@H]2CN(C)CCO2)cc1
Could you point out whether the larger CLH belongs to I or to II ? Refer to your chosen entry by its label in the reply.
I

====

// IC50 lookup, one value per entry
tested on: Voltage-gated inwardly rectifying potassium channel KCNH2 (Homo sapiens)
Sequence (Q12809 whole entry): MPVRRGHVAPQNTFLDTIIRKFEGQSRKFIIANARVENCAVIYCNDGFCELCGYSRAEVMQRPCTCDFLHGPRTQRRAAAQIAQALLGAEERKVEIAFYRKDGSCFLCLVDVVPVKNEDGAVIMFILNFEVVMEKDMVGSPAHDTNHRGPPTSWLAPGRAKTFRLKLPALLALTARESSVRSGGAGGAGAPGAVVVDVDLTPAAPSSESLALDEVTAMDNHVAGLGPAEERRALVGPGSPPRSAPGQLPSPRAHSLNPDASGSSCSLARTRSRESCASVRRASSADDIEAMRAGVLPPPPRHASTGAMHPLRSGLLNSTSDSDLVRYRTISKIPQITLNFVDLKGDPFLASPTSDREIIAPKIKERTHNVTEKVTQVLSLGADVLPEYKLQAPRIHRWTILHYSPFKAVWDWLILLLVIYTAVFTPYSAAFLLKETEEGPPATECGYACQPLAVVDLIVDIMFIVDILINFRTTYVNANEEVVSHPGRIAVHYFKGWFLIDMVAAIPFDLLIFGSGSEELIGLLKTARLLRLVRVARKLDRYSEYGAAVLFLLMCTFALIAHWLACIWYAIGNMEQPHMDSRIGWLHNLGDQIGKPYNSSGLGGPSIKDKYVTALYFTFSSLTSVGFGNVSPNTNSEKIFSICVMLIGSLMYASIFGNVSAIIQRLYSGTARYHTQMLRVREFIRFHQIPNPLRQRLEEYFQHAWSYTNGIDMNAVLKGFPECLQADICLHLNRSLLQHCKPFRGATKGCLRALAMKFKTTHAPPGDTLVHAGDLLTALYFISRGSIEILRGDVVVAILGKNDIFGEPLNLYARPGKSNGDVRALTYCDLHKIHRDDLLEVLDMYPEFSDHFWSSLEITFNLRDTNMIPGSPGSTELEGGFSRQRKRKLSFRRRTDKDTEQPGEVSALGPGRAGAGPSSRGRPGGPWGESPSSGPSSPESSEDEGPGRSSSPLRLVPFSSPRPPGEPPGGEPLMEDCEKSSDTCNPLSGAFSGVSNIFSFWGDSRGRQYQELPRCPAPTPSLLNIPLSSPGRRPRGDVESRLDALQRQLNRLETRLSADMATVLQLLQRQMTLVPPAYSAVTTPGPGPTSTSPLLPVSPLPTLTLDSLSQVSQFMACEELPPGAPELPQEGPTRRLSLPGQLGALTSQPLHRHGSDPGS
experiment notes: Inhibition of human ERG by patch clamp assay
# number only, unit µM dropped from output

Consider the reported IC50 for these compounds:
>>> val("CC(C)Cc1ccc2nn(C)cc2c1NS(=O)(=O)c1ccc(CCCOC[C@@H]2CCCN2C)cc1")
3
>>> val("CC(C)Cc1ccc2ncccc2c1NS(=O)(=O)c1ccc(CCCN2CCN3CCC[C@@H]3C2)cc1")
1.3
>>> val("CC(C)Cc1ccc2nn(C)cc2c1NS(=O)(=O)c1ccc(CCCCC2CCN(C)CC2)cc1")
3.7
>>> val("CC(C)Cc1ccc2nn(C)cc2c1NS(=O)(=O)c1ccc(CCCOC[C@H]2COCCN2C)cc1")
3.1
>>> val("CC(C)Cc1ccc2ncccc2c1NS(=O)(=O)c1ccc(CCCO[C@@H]2C[C@H]3CC[C@@H](C2)N3C)cc1")
1.6

Now let's try a different one.
Give the measured IC50 of "CC(C)Cc1ccc2nn(C)cc2c1NS(=O)(=O)c1ccc(CCCO[C@@H]2C[C@H]3CC[C@@H](C2)N3C)cc1" .
3.3

====

experiment notes: Half life in CD1 mouse plasma at 50 uM by UPLC-MS/MS analysis
Assay type: ADME, cell-free
attribute measured: half-life at 50 µM

Can you share its half-life at 50 µM? I mean this compound: "COC(=O)c1ccc(N2CCCCCC2)c(NS(=O)(=O)c2ccc(CCCCC3CCN(C)CC3)cc2)c1"
< 15 min
